Listing: inhibition of selected compounds
Species on record: Homo sapiens
procedure details: Inhibition of human recombinant PDE4A1A using FAM-cAMP as substrate at 10 uM measured after 1 hr by IMAP TR-FRET assay
Field: numeric (%). Do not append units.

COc1ccc(CCNS(=O)(=O)c2ccc3ccccc3c2)cc1OC :: 30.4
COc1ccc(/C=N/NS(=O)(=O)c2ccccc2)cc1OC :: 11.9
COc1ccc(CCN(C)S(=O)(=O)c2ccc(-c3ccccc3)cc2)cc1OC :: 46.8
COc1ccc(CCN(C)S(=O)(=O)c2ccc(OC)c(OC)c2)cc1OC :: 36.1

Next item in the queue.
Q. I'd like to know its inhibition. The compound in question is `COc1ccc(CCNS(=O)(=O)c2ccc(-c3ccccc3)cc2)cc1OC`
A. 14.8

---

Listing: inhibition of selected compounds
target: 3',5'-cyclic-AMP phosphodiesterase 4C (Homo sapiens)
procedure details: Inhibition of human recombinant PDE4C using FAM-cAMP as substrate at 10 uM measured after 1 hr by IMAP TR-FRET assay
Field: numeric (%). Do not append units.

COc1ccc(CCN(C)S(=O)(=O)c2ccc3ccccc3c2)cc1OC :: 30.1
COc1ccc(CCN(C)S(=O)(=O)c2ccc(-c3ccccc3)cc2)cc1OC :: 26.6
COc1ccc(/C=N/NS(=O)(=O)c2ccccc2)cc1OC :: 14.6
COc1ccc(S(=O)(=O)N/N=C/c2ccc(OC)c(OC)c2)cc1 :: 40.2
COc1ccc(CCN(C)S(=O)(=O)c2ccc(OC)c(OC)c2)cc1OC :: 16.4

Q. I'd like to know its inhibition. The compound in question is `COc1ccc(CCN(C)S(=O)(=O)c2ccc([N+](=O)[O-])cc2)cc1OC`
A. 19

Q. Please do the same for `COc1ccc(CCNS(=O)(=O)c2ccc3ccccc3c2)cc1OC` as well.
A. 12.1

---

target: 3',5'-cyclic-AMP phosphodiesterase 4C (Homo sapiens)
procedure details: Inhibition of human recombinant PDE4C using FAM-cAMP as substrate at 10 uM measured after 1 hr by IMAP TR-FRET assay
Mark satisfied for reported inhibition of 30% or greater; mark not satisfied for anything smaller.

These recorded examples may help you get a feel for the data.
COc1ccc(CCN(C)S(=O)(=O)c2ccccc2C)cc1OC :: not satisfied
COc1ccc(CCNS(=O)(=O)c2ccc([N+](=O)[O-])cc2)cc1OC :: not satisfied
COc1ccc(/C=N/NS(=O)(=O)c2cc3c(cc2C)OCO3)cc1OC :: not satisfied

Q. Quick check, inhibition >= 30%? `COc1ccc(CCNS(=O)(=O)c2ccc(OC)c(OC)c2)cc1OC`
A. not satisfied

---

target: 3',5'-cyclic-AMP phosphodiesterase 4C (Homo sapiens, UniProt Q08493)
Sequence (Q08493 whole entry): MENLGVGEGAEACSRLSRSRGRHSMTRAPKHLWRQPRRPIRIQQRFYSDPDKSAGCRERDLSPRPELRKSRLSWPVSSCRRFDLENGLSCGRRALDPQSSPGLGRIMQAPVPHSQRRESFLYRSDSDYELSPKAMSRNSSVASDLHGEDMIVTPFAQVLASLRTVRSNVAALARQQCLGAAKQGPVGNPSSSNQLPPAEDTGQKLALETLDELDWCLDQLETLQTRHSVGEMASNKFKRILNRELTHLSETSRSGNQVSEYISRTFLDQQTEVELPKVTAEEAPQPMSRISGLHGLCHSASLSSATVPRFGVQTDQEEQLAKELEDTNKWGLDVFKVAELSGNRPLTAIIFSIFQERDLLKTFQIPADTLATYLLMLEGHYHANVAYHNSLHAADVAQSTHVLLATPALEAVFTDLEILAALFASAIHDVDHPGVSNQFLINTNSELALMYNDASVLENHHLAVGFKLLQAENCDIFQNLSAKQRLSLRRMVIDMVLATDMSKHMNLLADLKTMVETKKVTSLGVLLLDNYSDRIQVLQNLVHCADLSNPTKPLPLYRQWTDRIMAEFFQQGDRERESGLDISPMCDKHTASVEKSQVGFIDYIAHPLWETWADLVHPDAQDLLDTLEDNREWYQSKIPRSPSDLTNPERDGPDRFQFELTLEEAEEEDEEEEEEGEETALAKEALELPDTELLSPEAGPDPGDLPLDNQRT
procedure details: Inhibition of human recombinant PDE4C using FAM-cAMP as substrate at 10 uM measured after 1 hr by IMAP TR-FRET assay
Mark Criterion met for reported inhibition of 40% or greater; mark Criterion not met for anything smaller.

These recorded examples may help you get a feel for the data.
COc1ccc(/C=N/N(C)S(=O)(=O)c2cc3c(cc2C)OCO3)cc1OC :: Criterion not met
COc1ccc(CCNS(=O)(=O)c2ccccc2C)cc1OC :: Criterion not met

Now for another entry.
Q. Quick check, inhibition >= 40%? `COc1ccc(S(=O)(=O)N(C)/N=C/c2ccc(OC)c(OC)c2)cc1`
A. Criterion met

---

target: 3',5'-cyclic-AMP phosphodiesterase 4C (Homo sapiens, UniProt Q08493)
procedure details: Inhibition of human recombinant PDE4C using FAM-cAMP as substrate at 10 uM measured after 1 hr by IMAP TR-FRET assay
measurement name: inhibition (%)
Field: numeric (%). Do not append units.

COc1ccc(/C=N/NS(=O)(=O)c2ccccc2C)cc1OC :: 19.5
COc1ccc(S(=O)(=O)N(C)CCc2ccc(OC)c(OC)c2)cc1 :: 23.5
COc1ccc(/C=N/N(C)S(=O)(=O)c2ccccc2C)cc1OC :: 39.3
COc1ccc(S(=O)(=O)NCCc2ccc(OC)c(OC)c2)cc1 :: 20.7

Q. I'd like to know its inhibition. The compound in question is `COc1ccc(/C=N/NS(=O)(=O)c2ccc(C(F)(F)F)cc2)cc1OC`
A. 29

Q. Please do the same for `COc1ccc(CCNS(=O)(=O)c2cc3c(cc2C)OCO3)cc1OC` as well.
A. 21.3

Q. Please do the same for `COc1ccc([C@]2(C#N)CC[C@@H](C(=O)O)CC2)cc1OC1CCCC1` as well.
A. 98.5
